FYI, the data here is from ChEMBL document CHEMBL3785033.

- system: Bromodomain-containing protein 4 (Homo sapiens, UniProt O60885)
- experiment_notes: Displacement of biotinylated tetra-acetylated histone H4 from his-tagged BRD4 bromodomain1 (unknown origin) incubated for 1 hr at 22 degC followed by overnight incubation at 4degC by TR-FRET assay

- sample_smiles: "Cc1nnc(C[C@@H]2C=C(c3ccc(Cl)cc3)c3ccccc3-n3c(C)nnc32)o1"
  IC50 [nM]: 20

---

- system: Bromodomain-containing protein 4 (Homo sapiens)
- experiment_notes: Displacement of biotinylated tetra-acetylated histone H4 from his-tagged BRD4 bromodomain1 (unknown origin) incubated for 60 mins by Alphascreen assay

- sample_smiles: "Cc1ccc2ncccc2c1-c1cc(-c2c(C)noc2C)cc2[nH]c(=O)[nH]c12"
  IC50: "< 14 nM"
